The origin of these recorded values is the supplement of paper PMC10567573.

Reported protein stability index values are given for each entry in this list.
B1: MCOLN1 (parent)
chain: EEEDLRRRLKYFFMSPCDKFRAKG

variants of: B1; experiment: protein stability index of a GFP-peptide fusion (GPS, HEK-293T) (PSI 1-6); higher = more stable; details: c terminus: a fixed tail appended;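 note: lentivirally expressed fusions sorted by FACS into six bins by GFP to DsRed ratio, PSI derived from sequencing read proportions per bin multiplied by bin number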
MEASUREMENT LABEL: protein stability index

>>> df
    mutant_label        measurement_label  measured_number
 0          K19I  protein stability index             1.74
 1           R6D  protein stability index             3.28
 2          Y11N  protein stability index             3.23
 3          C17A  protein stability index             2.21
 4           E3Y  protein stability index             1.85
 5          R21E  protein stability index             3.45
 6          A22S  protein stability index             2.27
 7          F20V  protein stability index             3.06
 8           L9N  protein stability index              3.5
 9           R7V  protein stability index                2
10          K19P  protein stability index             2.66
11           E1Y  protein stability index             2.27
12          G24T  protein stability index             2.52
13          M14V  protein stability index             2.66
14          F13L  protein stability index              3.2
15          K10W  protein stability index              2.1
16           L9D  protein stability index              4.1
17          A22C  protein stability index             1.97
18          K19D  protein stability index             2.45
19           R8M  protein stability index             2.05
20           D4M  protein stability index             1.48
21           L9T  protein stability index             3.33
22           E1M  protein stability index             2.08
23          K10M  protein stability index             1.93
24          F13S  protein stability index             3.37
25          P16N  protein stability index             2.11
26          K23Y  protein stability index             1.53
27          C17H  protein stability index             2.61
28          F12R  protein stability index             2.91
29           L5C  protein stability index             2.82
30          K10L  protein stability index             2.97
31          Y11W  protein stability index             1.42
32          Y11H  protein stability index             2.46
33           D4A  protein stability index             1.13
34          K19F  protein stability index             2.21
35          S15A  protein stability index             2.42
36          D18M  protein stability index             2.35
37           L5V  protein stability index             3.09
38          R21D  protein stability index             3.15
39          S15F  protein stability index             2.26
40          F13Q  protein stability index             3.65
41          F20R  protein stability index             3.04
42          Y11A  protein stability index              2.9
43          M14D  protein stability index             3.23
44           L5I  protein stability index             1.92
45          K23I  protein stability index             2.01
46           L5A  protein stability index             2.91
47          P16M  protein stability index             1.78
48           L9G  protein stability index             3.64
49          Y11M  protein stability index             2.79
50          P16V  protein stability index             2.12
51           E2Y  protein stability index             1.94
52           L5E  protein stability index             3.53
53           E3C  protein stability index             2.65
54          K23N  protein stability index             2.56
55          S15C  protein stability index             1.66
56           R6W  protein stability index              1.8
57           R7Y  protein stability index             2.65
58          K19G  protein stability index             2.37
59          F12P  protein stability index             3.56
60          G24M  protein stability index             2.29
61          K19R  protein stability index             1.55
62           D4R  protein stability index             2.23
63          F12I  protein stability index             2.93
64          M14A  protein stability index             3.27
65          F12Y  protein stability index             2.69
66          C17S  protein stability index             2.54
67          C17T  protein stability index             2.19
68          P16F  protein stability index              2.2
69           R6M  protein stability index             1.42
70          F13G  protein stability index             3.78
71          Y11D  protein stability index             2.87
72          R21L  protein stability index             2.19
73           E2D  protein stability index             1.92
74          K10D  protein stability index             3.41
75          K23L  protein stability index             1.86
76           R8W  protein stability index             2.42
77           D4V  protein stability index             1.74
78          F12K  protein stability index             2.98
79          M14K  protein stability index             3.14
80          A22Y  protein stability index             1.88
81          Y11P  protein stability index             3.33
